Give inhibition for every item shown.
target: UniProt:P17252; assay: Displacement of [3H]-PDBu from recombinant human PKCalpha at 30 uM by scintillation counter method relative to control
Answers are plain numbers, in %.

// solved cases for inhibition follow
compound	inhibition [%]
CC(C)=C1CC(CO)(Cn2cc(-c3ccc(C)cc3)nn2)OC1=O (centres undefined)	11.7
CC(C)=C1CC(CO)(COc2cc(C)on2)OC1=O (centres undefined)	31.3

Record inhibition for all entries; do not skip any.
1. CC(C)CC(C/C=C1\CC(CO)(Cn2nnc(-c3ccccc3)n2)OC1=O)CC(C)C (centres undefined)
2. CC(C)=C1CC(CO)(Cn2nnc(-c3ccccc3)n2)OC1=O (centres undefined)

Output:
37.5
23.5

====

biological target: Protein kinase C alpha type (Homo sapiens, UniProt P17252); experiment: Displacement of [3H]-PDBu from recombinant human PKCalpha by scintillation counter method
value-kind: pKi
One number for each entry, as −log10 of the molar value.

compound	system-under-test	pKi
CC(C)CC(C/C=C1\CC(CO)(COC(=O)C(C)(C)C)OC1=O)CC(C)C (configuration not stated)	Protein kinase C alpha type (Homo sapiens, UniProt P17252)	7.63

# next compound below
Input: Given the entry Cc1cc(OCC2(CO)C/C(=C\CC(CC(C)C)CC(C)C)C(=O)O2)no1 (configuration not stated) , report its measured pKi.
Output: 7.10
